# target: UniProt P28566
# Sequence (P28566 whole entry): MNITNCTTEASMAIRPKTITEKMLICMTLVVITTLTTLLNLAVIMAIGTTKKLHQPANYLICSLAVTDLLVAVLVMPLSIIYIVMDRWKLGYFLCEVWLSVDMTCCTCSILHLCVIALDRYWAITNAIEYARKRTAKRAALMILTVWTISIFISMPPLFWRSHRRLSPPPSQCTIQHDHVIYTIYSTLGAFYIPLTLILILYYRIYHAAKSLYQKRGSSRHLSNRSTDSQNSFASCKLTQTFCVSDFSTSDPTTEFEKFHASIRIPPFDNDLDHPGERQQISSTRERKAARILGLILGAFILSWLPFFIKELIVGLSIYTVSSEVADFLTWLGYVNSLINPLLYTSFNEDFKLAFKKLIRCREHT
# procedure text: Radioligand displacement, 5-HT1e
# Format: binding
# condition info: [3H] radioligand 5HT; Human, Cloned; read-out: Ki
value kind: Ki

molecule="CC(C)[C@@H](CN1CC[C@@](C)(c2cccc(O)c2)[C@@H](C)C1)NC(=O)[C@H]1Cc2ccc(O)cc2CN1 [JDTic]" observed="≥ 10 µM"

====

# target: 5-HT3 (Homo sapiens, UniProt P46098)
# Sequence (P46098 24-478): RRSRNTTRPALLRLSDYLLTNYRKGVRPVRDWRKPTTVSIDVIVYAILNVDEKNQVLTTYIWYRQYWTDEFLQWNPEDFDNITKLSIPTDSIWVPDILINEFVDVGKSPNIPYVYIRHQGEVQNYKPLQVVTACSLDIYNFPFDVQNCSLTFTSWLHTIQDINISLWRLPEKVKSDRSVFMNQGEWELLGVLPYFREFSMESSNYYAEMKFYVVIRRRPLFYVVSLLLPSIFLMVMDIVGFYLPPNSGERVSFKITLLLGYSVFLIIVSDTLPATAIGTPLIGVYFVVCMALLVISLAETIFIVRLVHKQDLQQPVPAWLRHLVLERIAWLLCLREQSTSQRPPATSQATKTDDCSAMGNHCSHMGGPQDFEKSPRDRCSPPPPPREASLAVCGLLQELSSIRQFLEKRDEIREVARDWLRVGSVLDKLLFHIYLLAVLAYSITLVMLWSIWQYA
# procedure text: Radioligand displacement, 5-HT3
# Assay type: binding
# condition info: [3H] radioligand LY278584; Human, Cloned; read-out: Ki
pKi: −log10 of the molar value.
value kind: pKi

compound_structure=CC(C)[C@@H](CN1CC[C@@](C)(c2cccc(O)c2)[C@@H](C)C1)NC(=O)[C@H]1Cc2ccc(O)cc2CN1 observed="≤ 5.00"
